Source of measurements: paper PMC2613801

- Target desc: TRPV1 (Rattus norvegicus, UniProt O35433)
- Sequence (O35433 whole entry): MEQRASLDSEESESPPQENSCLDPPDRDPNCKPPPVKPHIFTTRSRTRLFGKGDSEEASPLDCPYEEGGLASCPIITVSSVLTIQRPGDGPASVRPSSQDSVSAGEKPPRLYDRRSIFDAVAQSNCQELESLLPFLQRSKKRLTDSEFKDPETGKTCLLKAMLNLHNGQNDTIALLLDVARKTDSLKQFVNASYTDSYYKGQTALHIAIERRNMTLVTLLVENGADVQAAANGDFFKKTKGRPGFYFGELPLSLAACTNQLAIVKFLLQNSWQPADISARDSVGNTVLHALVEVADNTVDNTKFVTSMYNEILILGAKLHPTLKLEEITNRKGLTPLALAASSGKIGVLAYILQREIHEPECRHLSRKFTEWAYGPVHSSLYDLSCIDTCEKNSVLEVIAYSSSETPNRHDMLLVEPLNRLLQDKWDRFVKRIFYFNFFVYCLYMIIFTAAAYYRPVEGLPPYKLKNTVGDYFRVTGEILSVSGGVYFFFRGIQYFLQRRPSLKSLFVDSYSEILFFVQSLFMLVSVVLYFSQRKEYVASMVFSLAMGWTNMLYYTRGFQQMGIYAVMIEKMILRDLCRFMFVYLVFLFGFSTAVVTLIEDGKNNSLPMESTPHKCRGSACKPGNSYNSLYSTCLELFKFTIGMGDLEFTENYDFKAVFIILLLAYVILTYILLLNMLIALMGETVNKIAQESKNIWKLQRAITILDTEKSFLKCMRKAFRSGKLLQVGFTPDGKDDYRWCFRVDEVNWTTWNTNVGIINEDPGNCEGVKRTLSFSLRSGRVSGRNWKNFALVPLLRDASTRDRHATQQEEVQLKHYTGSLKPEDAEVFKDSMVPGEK
- Assay procedure: capsaicin-induced 45Ca2+-uptake in TRPV1ε-NIH3T3 cells
- Format: cell-based
- Condition info: enhancement of 45Ca2+-uptake in presence of 2 µM capsaicin
Property measured: Hill Slope ± SEM

1. CCOC(=O)C1=C(C)NC(c2ccc(F)cc2)=C(C(=O)OCC)C1CC (racemic)
2. CCOC(=O)C1=C(c2ccc(F)cc2)NC(C)=C(C(=O)SCCc2ccccc2)C1CC (racemic)
Q. Returns: the label, 1 or 2 , whose recorded Hill Slope ± SEM is the lower number. Give the chosen item's label as your response.
A. 2

1. CCOC(=O)C1=C(c2ccccc2)N=C(C)/C(=C(/O)SCCOC)C1CC (stereo not shown)
2. CCCC1C(C(=O)SCCc2ccccc2)=C(C)NC(c2ccccc2)=C1C(=O)OCC (racemic)
Q. Returns: the label, 1 or 2 , whose recorded Hill Slope ± SEM is the lower number. Give the chosen item's label as your response.
A. 2
(2: 1.14, 1: 1.79)
